system: hOX2R (Homo sapiens, UniProt O43614)
Construct: expressed in transfected cells; host or cells: CHO cells (G418 selection)
Sequence (O43614 1-444): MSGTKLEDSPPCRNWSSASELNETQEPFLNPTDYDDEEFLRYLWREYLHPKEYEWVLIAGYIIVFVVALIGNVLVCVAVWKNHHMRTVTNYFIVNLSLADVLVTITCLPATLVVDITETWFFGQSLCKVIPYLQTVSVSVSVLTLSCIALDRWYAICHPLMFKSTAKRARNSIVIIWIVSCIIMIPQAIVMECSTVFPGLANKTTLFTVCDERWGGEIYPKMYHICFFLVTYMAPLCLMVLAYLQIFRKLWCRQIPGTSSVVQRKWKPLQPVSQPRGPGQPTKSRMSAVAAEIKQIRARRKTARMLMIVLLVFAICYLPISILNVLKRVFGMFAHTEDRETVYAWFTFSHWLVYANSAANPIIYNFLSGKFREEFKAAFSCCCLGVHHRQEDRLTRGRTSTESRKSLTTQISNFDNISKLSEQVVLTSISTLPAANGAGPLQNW
assay_protocol: hOX2R IPone assay (orexin receptor agonism)
Assay type: cell-based
condition_info: maximal activation, IPone readout
observation_type: hOX2R_Ipone max %act (%)

Observe how each entry below is paired with its result.
For the molecule `CCN1C(=O)N[C@@H](CCC(F)(F)F)CCCCCCOc2nc(cn3ccnc23)-c2cc(ncc2OC)[C@H]1C` , the measured hOX2R_Ipone max %act on hOX2R (Homo sapiens, UniProt O43614) was 102.4

`CCN1C(=O)N[C@@H](CCC(F)(F)F)CCCCCOc2cc(nn3c(C)cnc23)-c2cc(ncc2OC)[C@H]1C` on hOX2R (Homo sapiens, UniProt O43614) gives hOX2R_Ipone max %act = 99.31

# hOX2R_Ipone max %act measured on hOX2R (Homo sapiens, UniProt O43614) for item CCN1C(=O)NC(CC(C)(F)F)CCCCCOc2nc(nn3ccnc23)-c2cc(ncc2OC)[C@H]1C (some centres unmarked) = 104.7

(P) CCN1C(=O)N[C@@H](CCC(F)(F)F)CCCCCOc2nc(cn3ncnc23)-c2cc(ncc2OC)[C@H]1C
(Q) CCN1C(=O)N[C@@H](CCC(F)(F)F)CCCCCOc2nc(cn3ccnc23)C2=NC=C(O2)C1C (single isomer, unassigned) [Example 104A]
Out of P and Q , name the one with the higher hOX2R_Ipone max %act. Write down the label attached to your selection.
P
(P: 99.62%, Q: 60.9%)

---

system: hOX2R (Homo sapiens, UniProt O43614)
Construct: expressed in transfected cells; host or cells: CHO cells (G418 selection)
Sequence (O43614 1-444): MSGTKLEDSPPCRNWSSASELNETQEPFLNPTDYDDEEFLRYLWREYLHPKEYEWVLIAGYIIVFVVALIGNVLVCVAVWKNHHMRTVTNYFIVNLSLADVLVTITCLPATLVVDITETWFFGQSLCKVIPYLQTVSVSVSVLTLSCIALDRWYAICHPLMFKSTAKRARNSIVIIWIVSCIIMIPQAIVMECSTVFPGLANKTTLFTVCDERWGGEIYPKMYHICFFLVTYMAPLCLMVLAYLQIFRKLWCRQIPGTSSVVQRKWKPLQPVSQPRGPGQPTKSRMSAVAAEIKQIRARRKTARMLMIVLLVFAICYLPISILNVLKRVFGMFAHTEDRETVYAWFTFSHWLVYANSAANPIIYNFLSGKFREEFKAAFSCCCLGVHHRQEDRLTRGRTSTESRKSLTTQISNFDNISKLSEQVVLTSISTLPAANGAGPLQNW
assay_protocol: hOX2R IPone assay (orexin receptor agonism)
Type: cell-based
condition_info: maximal activation, IPone readout
observation_type: hOX2R_Ipone max %act (%)

The observed hOX2R_Ipone max %act for `CCN1C(=O)N[C@@H](CCC(F)(F)F)CCCCCOc2nc(c(C)n3ccnc23)-c2cc(cnc2OC)[C@H]1C` when tested with hOX2R (Homo sapiens, UniProt O43614) stands at 99.3

hOX2R (Homo sapiens, UniProt O43614) hOX2R_Ipone max %act of CCN1C(=O)N[C@@H](CCC(F)(F)F)CCCCCOc2nc(cn3ccnc23)-c2cc(cc(C)n2)[C@H]1C [Example 118B] is 99.7

Readout hOX2R_Ipone max %act for `CCN1C(=O)N[C@@H](CCS(C)(=O)=O)CCCCCOc2nc(cn3ncnc23)-c2cc(ncc2OC)[C@H]1C` , test system hOX2R (Homo sapiens, UniProt O43614), was 106.1

Field hOX2R_Ipone max %act (hOX2R (Homo sapiens, UniProt O43614)), entry CCN1C(=O)NC(CCC(C)(C)F)CCCCCOc2nc(cn3ccnc23)-c2cc(ncc2OC)[C@H]1C (single isomer, unassigned) [Example 71A] : 100.5

The observed hOX2R_Ipone max %act for CCN1C(=O)NC(C)CCCCCOc2nc(cn3ccnc23)-c2cccc(c2)[C@H]1C (mixture of isomers) when tested with hOX2R (Homo sapiens, UniProt O43614) stands at 98.6

# value of hOX2R_Ipone max %act, hOX2R (Homo sapiens, UniProt O43614), item CCN1C(=O)NC(CC2CC2(F)F)CCCCCOc2nc(cn3ccnc23)-c2cc(ncc2OC)[C@H]1C (single isomer, unassigned) [Example 59C] = 99.3

GET /values?item= CCN1C(=O)NCC(C(F)(F)F)N(C)CCOc2nc(cn3ccnc23)-c2cccc(c2)[C@H]1C (single isomer, unassigned) [Example 25B] &system= hOX2R (Homo sapiens, UniProt O43614) returns hOX2R_Ipone max %act: 97.81

Param item: CCN1C(=O)NC(CCC(C)(F)F)CCCCCOc2nc(nn3ccnc23)-c2cc(ncc2OC)[C@H]1C (some centres unmarked) ; param system: hOX2R (Homo sapiens, UniProt O43614); output hOX2R_Ipone max %act: 99.5

Record for CCN1C(=O)NC(CCC(F)(F)F)C(C)CCCOc2nc(cn3ccnc23)-c2cccc(c2)[C@H]1C (single isomer, unassigned) [Example 42D] under target or system hOX2R (Homo sapiens, UniProt O43614): hOX2R_Ipone max %act reported as 98.8

Value (hOX2R_Ipone max %act, hOX2R (Homo sapiens, UniProt O43614)) for record `CCN1C(=O)NCCN(C(C)C)CCOc2nc(cn3ccnc23)-c2cccc(c2)[C@H]1C` = 88.8

// hOX2R_Ipone max %act (hOX2R (Homo sapiens, UniProt O43614)) for CCN1C(=O)N[C@@H](CCC(F)(F)F)CCCCCOc2nc(cn3ccnc23)-c2cc(nc(C)n2)[C@@H]1C [Example 119A] = 100.1

For `CCN1C(=O)N[C@@H](CCC(F)(F)F)C/C=C\COc2nc(cn3ccnc23)-c2cccc(c2)[C@H]1C` on hOX2R (Homo sapiens, UniProt O43614), measured hOX2R_Ipone max %act was 100.5

Record `CCN1C(=O)N[C@@H](CCC(F)(F)F)CCCCCOc2nc(cn3ccnc23)C2=C(C3CC3)N=C(O2)[C@H]1C` has hOX2R (Homo sapiens, UniProt O43614) hOX2R_Ipone max %act equal to 99.83

// molecule `CCN1C(=O)NCCCCOc2nc(cn3ccnc23)-c2cc(ncc2OC)[C@H]1C` , assay hOX2R (Homo sapiens, UniProt O43614), hOX2R_Ipone max %act value: 88
